Ref: patent US9957271B2

Target: SIRT1 (Homo sapiens)
Sequence (Q96EB6 1-747): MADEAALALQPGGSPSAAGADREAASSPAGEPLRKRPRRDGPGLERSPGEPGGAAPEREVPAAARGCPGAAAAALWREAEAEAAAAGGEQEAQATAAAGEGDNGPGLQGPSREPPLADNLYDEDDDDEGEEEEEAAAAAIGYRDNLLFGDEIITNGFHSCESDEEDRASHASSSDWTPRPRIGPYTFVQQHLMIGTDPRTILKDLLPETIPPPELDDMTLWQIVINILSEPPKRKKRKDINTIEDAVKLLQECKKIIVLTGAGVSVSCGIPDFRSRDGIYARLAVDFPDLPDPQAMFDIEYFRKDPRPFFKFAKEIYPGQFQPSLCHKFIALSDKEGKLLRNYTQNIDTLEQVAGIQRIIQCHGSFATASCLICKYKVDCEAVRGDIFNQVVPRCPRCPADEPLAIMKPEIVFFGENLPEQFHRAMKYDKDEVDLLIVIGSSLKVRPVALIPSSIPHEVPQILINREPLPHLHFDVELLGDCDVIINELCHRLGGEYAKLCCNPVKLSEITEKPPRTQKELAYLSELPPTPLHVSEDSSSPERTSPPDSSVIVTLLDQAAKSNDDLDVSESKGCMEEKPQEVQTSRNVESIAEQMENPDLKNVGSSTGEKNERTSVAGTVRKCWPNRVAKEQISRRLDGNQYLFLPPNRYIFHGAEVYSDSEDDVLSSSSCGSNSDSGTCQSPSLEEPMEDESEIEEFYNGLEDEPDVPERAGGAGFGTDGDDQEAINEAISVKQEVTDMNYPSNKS
Assay: Trp mass spectrometry assay of SIRT1 activity
Type: biochemical
Conditions: Trp peptide substrate; concentration giving 150% activation of SIRT1
assay endpoint: Trp EC1.5

Reference set (5 entries):
- O=C(Nc1cccc(N2CCOCC2)n1)c1cnc2ccc(N3CC[C@H](F)C3)nn12: A (EC1.5<1 μM)
- COc1cccc(C(=O)Nc2c(C)nc3c(C)cc(-c4ccccc4C(F)(F)F)nn23)n1: B (EC1.5 1-25 μM)
- Cc1nc(C(=O)Nc2cnc3c(C)cc(-c4ccccc4C(F)(F)F)nn23)c(C)s1: A (EC1.5<1 μM)
- Cc1nn2ccc(-c3ccccc3C(F)(F)F)nc2c1C(=O)Nc1cccnc1: B (EC1.5 1-25 μM)
- Cc1cccc(NC(=O)c2cnc3ccc(-c4ccccc4OC(F)(F)F)nn23)n1: B (EC1.5 1-25 μM)

In one line, give reported Trp EC1.5 of the entry `O=C(Nc1ccncn1)c1cnn2ccc(-c3ccccc3OC(F)(F)F)nc12` .
B (EC1.5 1-25 μM)

Return reported Trp EC1.5. Input molecule: `Cc1nc2c(C)cc(-c3ccccc3C(F)(F)F)nn2c1C(=O)Nc1ccncc1F`
A (EC1.5<1 μM)
